Recorded values, source patent US20250250569A1.

- tgt: T1, Human Serum Albumin (human, UniProt P02768 25-609)
- T1 construct: Kit reagent; the form of the albumin is not described; also called HSA
- assayRemarks: TransilXL HSA Binding Kit (Sovicell), fraction bound to serum albumin
Ends that are not written are not given here. LA = not defined here
Please respond with reported fb for every item in the list.
# number only, unit % dropped from output

// query Consider the binder shown here: Ac-DLLDDLLDDLLEGFGFVGGQLLQQLLQQLLQK(LA)G-NH2 (reading uncertain; also: conjugated to a fluorescent probe, site not given here, printed as Cap-DLLDDLLDDLLEGFGFVGGQLLQQLLQQLLQKG′, Synthetic peptide; also called compound 250-1) [250-1, SEQ ID NO: 52] What is its recorded fb?
// result 78.1

// query Consider the binder shown here: DLLDDLLDDLLEGFGFVGGNLLNNLLNNLLNKG-NH2 (not fully specified (residue 32, N-terminus); printed as Cap-DLLDDLLDDLLEGFGFVGGNLLNNLLNNLLNKG′; also: fluorescent probe conjugate, site not given here, also called delivery agent 256-1) [256-1, SEQ ID NO: 68] What is its recorded fb?
// result 95

// query Consider the binder shown here: Ac-DLLDDLLDDLLEGFGFVGGQLLAQLLAQLLQK(LA)G-NH2 (reading uncertain; also: conjugated to a fluorescent probe, site not given here, printed as Cap-DLLDDLLDDLLEGFGFVGGQLLAQLLAQLLQKG′, Synthetic peptide; also called compound 251-1) [251-1, SEQ ID NO: 54] What is its recorded fb?
// result 87.2

// query Consider the binder shown here: Ac-DLLDDLLDDLLEGFGFVGGNLLQQLLQQLLQK(LA)G-NH2 (reading uncertain; also: conjugated to a fluorescent probe, site not given here, printed as Cap-DLLDDLLDDLLEGFGFVGGNLLQQLLQQLLQKG′, Synthetic peptide; also called delivery agent 254-1) [254-1, SEQ ID NO: 60] What is its recorded fb?
// result 87.9
